Entry source: ChEMBL document CHEMBL1156829

The following compounds are listed with their measured pEC50 values.
- Tested on: Plasmodium falciparum
- measurement protocol: NOVARTIS: Inhibition of Plasmodium falciparum 3D7 (drug-susceptible) proliferation in erythrocyte-based infection assay
- Type: functional, organism-based
- condition description: Plasmodium falciparum, 3D7
pEC50: −log10 of the molar value.
readout type: pEC50

INSERT INTO assay_data (compound, readout_type, result) VALUES
  ('O=C(NCCN1CCOCC1)c1ccc(Cl)cc1 [MOCLOBEMIDE]', 'pEC50', '< 6.13'),
  ('COc1ccc(OC)c(/C=C/C(=O)Nc2ccc3nc(N4CCN(C)CC4)cc(C)c3c2)c1', 'pEC50', '< 5.90'),
  ('CCn1c(-c2ccc(O)cc2)nn(CN2CCN(Cc3ccc4c(c3)OCO4)CC2)c1=S', 'pEC50', '< 5.90');
